Test system: HCC-2998 colon
Procedure details: NCI-60 one-dose screen, 48 h
Condition details: 10 µM unless noted
This is part of a sample that, as a whole, favours compounds with a hit. Of some 83,000 tested, about 20% had one in any assay. Activity calls are given as the source filed them. Rule for the calls: active = growth percent below 10; inactive = the rest.
Output constraint: value belongs to active, inactive

COC(=O)c1cccc(Oc2ccc(NC(=O)Nc3cc(C(F)(F)F)ccc3F)cc2)c1; inactive

query: For "O=C1NC(=NC23CC4CC(CC(C4)C2)C3)N/C1=C\c1ccc2ncccc2c1" , which call appears in the assay record?
result: inactive

query: For "O=C(Cn1c(-c2ccccc2)nc2ccccc21)N=Nc1c(O)[nH]c2ccc(Br)cc12" , which call appears in the assay record?
result: active

query: For "Cc1ccc(C(=O)Nc2cc(-n3ccnc3C)cc(C(F)(F)F)c2)cc1C#Cc1cnc2cccnn12" , which call appears in the assay record?
result: active

query: For O=C1CC(c2ccc(I)cc2)OC2C=Cc3ccccc3C12 (stereo not drawn) , which call appears in the assay record?
result: inactive

query: For COc1ccc2c(c1)C(Sc1ccc(Cl)cc1)c1c(nc(N)c(C#N)c1N)O2 (stereo not drawn) , which call appears in the assay record?
result: inactive
